read-out: Epidermal growth factor receptor (EGFR), EGFR (gene 1956); assay: BSK_hDFCGF_EGFR: BioMAP Diversity Plus: hDFCGF Assay for Epidermal growth factor receptor (EGFR) Biomarker Activity (AID 2283057); conditions: primary human foreskin fibroblasts; actives raise or lower the signal
The source made the active and inactive calls. How the source made its calls: active means hit-call score of the fitted dose curve at least 0.9, where 1 is the maximum; inactive means score below 0.9.
Give your call using only these classes: TRUE for active, FALSE for inactive

Worked set:
1) CC(C)C(=O)OCCc1ccccc1 :: FALSE
2) C=CC(=O)OCC(C)OCC(C)OCC(C)OC(=O)C=C (configuration not stated) :: TRUE
3) Nc1ccc(C(=O)O)cc1 :: FALSE
4) Clc1cc(Cl)c(Cl)c(Cl)c1Cl :: FALSE
5) C=CC(=O)OCCCCCCCC(C)C :: FALSE

Prompt: Test call, this compound: "COC(OC)(C(=O)c1ccccc1)c1ccccc1"
Response: FALSE

Prompt: Short answer needed: outcome of this test for "CC1(C)CC(O)CC(C)(C)N1[O]" ?
Response: FALSE

----------
experiment: ATG_ISRE_CIS: Attagene CIS-FACTORIAL HepG2 Assay for human Interferon Regulatory Factor 1 (IRF1) binding to an Interferon-Stimulated Response Element (ISRE) (AID 2282948); conditions: HepG2 ISRE cis-reporter (Attagene), mRNA transcription readout; actives raise or lower the signal
Calls of active or inactive are those of the source. The calls were made as follows: active = hit-call score of the fitted dose curve at least 0.9, where 1 is the maximum; inactive = score below 0.9.
Write down the outcome that applies. Available outcomes: active, inactive

Please review the following examples before continuing.
1) CC(=O)OC1CCCCC1 :: inactive
2) COC(C=C(C)CCC=C(C)C)OC :: inactive
3) CC(=O)CCC1=C(C)CCCC1(C)C :: inactive
4) CCCC(C)C(=O)OCC (stereo not drawn) :: inactive
5) O=C(Cl)c1c(Cl)c(Cl)c(C(=O)Cl)c(Cl)c1Cl :: inactive
6) CC1=CCC2CC1C2(C)C (stereo not drawn) :: inactive

Prompt: For "Fc1ccc(Br)cc1" , what call appears in the results of this test?
Response: inactive

Prompt: # outcome recorded in this test, key = "c1ccc(Nc2cccc3ccccc23)cc1"
Response: active

----------
biological target: Retinoic acid receptor alpha (Homo sapiens) (UniProt P10276); experiment: ATG_DR5_RAR_CIS: Attagene CIS-FACTORIAL HepG2 Assay for human Retinoic Acid Receptor Alpha (RARE), DR5 submotif (AID 2282934); settings: HepG2 Attagene cis-factorial RARE DR5 reporter, mRNA; actives raise or lower the signal
Sequence (P10276 whole entry, looked up): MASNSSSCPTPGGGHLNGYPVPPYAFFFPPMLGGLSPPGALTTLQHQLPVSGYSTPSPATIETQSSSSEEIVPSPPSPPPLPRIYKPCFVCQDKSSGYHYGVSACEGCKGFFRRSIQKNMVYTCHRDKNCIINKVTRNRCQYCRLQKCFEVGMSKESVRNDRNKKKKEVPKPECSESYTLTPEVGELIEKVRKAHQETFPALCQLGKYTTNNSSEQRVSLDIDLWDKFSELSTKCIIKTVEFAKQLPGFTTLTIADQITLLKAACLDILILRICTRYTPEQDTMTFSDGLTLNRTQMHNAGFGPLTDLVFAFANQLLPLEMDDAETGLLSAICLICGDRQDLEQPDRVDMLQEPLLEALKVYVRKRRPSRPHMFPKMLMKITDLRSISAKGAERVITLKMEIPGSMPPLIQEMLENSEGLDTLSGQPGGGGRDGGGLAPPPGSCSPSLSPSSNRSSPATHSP
Activity calls are given as the source filed them. How the source made its calls: active means hit-call score of the fitted dose curve at least 0.9, where 1 is the maximum; inactive means score below 0.9.
Please reply with one of these outcomes: label 1 for active, label 0 for inactive

For orientation, consider the following solved cases.
1. CCCCCC1=CCCC1=O :: label 0
2. O=C(O)CCC(=O)O :: label 0
3. CCCC(C)C(=O)OCC (stereo unspecified) :: label 0
4. CCC(C)(O)CCCC(C)C (stereo unspecified) :: label 0
5. CC1=CCC2CC1C2(C)C (stereo unspecified) :: label 0
6. O=C(O)c1cc(O)c2ccccc2c1O :: label 1

Prompt: Call for entry "Nc1nc(N)nc(-c2ccccc2)n1" :
Response: label 0

Prompt: # lookup: test call for "C=Cc1ccc(OC(C)=O)cc1"
Response: label 0

Prompt: Returns: the outcome recorded for "Cc1cccc(C(C)(C)C)c1O" in this assay.
Response: label 0

Prompt: Would you mind telling me which call this test gave "CC=CC(=O)OCC(C)C" ?
Response: label 0

Prompt: How was CCCC1CCCC(=O)O1 (stereo unspecified) classified in this test?
Response: label 0

Prompt: Given CCCCC(C=O)CC (stereo unspecified) , state the outcome it received in this test.
Response: label 0

Prompt: Please let me know the test result on file for "Cc1c[nH]c(=O)[nH]c1=O" .
Response: label 0

----------
test: ATG_PXRE_CIS: Attagene CIS-FACTORIAL HepG2 Assay for human Pregnane X Receptor Element (PXRE) (AID 2282957); settings: HepG2 Attagene CIS-FACTORIAL PXRE reporter, mRNA; actives raise or lower the signal
Active and inactive are the calls of the source. The calls were made as follows: active = hit-call score of the fitted dose curve at least 0.9, where 1 is the maximum; inactive = score below 0.9.
// one of active, inactive, no free text

Here are 8 molecules together with their reported answers.
1) c1ccc(-c2nc3ccccc3[nH]2)cc1 :: active
2) O=C(O)c1cc(O)c2ccccc2c1O :: active
3) CC(=O)C(C)C :: inactive
4) CC(=O)OCC=C(C)C :: active
5) CCCCCCCCCCCCCC(=O)OC(C)C :: inactive
6) CC(C)[N+](C)(CCOC(=O)C1c2ccccc2Oc2ccccc21)C(C)C :: inactive
7) CO[Si](CCCS)(OC)OC :: inactive
8) Oc1ccc(-c2ccccc2)c(Cl)c1 :: inactive

Prompt: What is the recorded call for this molecule in the test? "O=c1c(O)c(-c2ccc(O)cc2O)oc2cc(O)cc(O)c12"
Response: active

Prompt: Outcome? CC1=NN(c2ccc(S(=O)(=O)O)cc2)C(=O)C1N=Nc1ccccc1 (stereo unspecified)
Response: active

Prompt: Each molecule tested received a call. Report the one for "CC(=O)CCC=C(C)C" .
Response: inactive

Prompt: Answer briefly: the call reported for "CCCCCCCCCCCCC" in this assay.
Response: inactive

Prompt: Short answer needed: outcome of this test for "Nc1ccc(C(=O)O)cc1" ?
Response: inactive

Prompt: In this assay, the call recorded for CCCCC(C=O)CC (stereo unspecified) was what?
Response: inactive

----------
read-out: Secreted IgG (sIgG), gene 3500; experiment: BSK_BT_sIgG: BioMAP Diversity Plus: BT Assay for Secreted IgG (sIgG) Biomarker Activity (AID 2284226); settings: primary human B cells with PBMC
Activity calls are given as the source filed them. How the source made its calls: active means hit-call score of the fitted dose curve at least 0.9, where 1 is the maximum; inactive means score below 0.9.
Reply using exactly one outcome from active, inactive

Please review the following examples before continuing.
1. C=CCCCCCCCCC=O :: inactive
2. CCc1cccc(C)c1N(C(=O)CS(=O)(=O)O)C(C)COC (stereo not drawn) :: inactive
3. c1ccc2sc(SSN3CCOCC3)nc2c1 :: active
4. C=CC(=O)OCC(C)OCC(C)OCC(C)OC(=O)C=C (stereo not drawn) :: active
5. C=CC(=O)OCCCCCCCC(C)C :: active

Prompt: GET /call?item= "CCCCCCCO" returns the recorded outcome of this test.
Response: inactive

Prompt: // outcome(item) with item = "O=C(O)C(F)(F)C(F)(F)C(F)(F)C(F)(F)C(=O)O"
Response: inactive

Prompt: Check the results log: what was the call for "Clc1cc(Cl)c(Cl)c(Cl)c1Cl" ?
Response: inactive

----------
target: Cellular tumor antigen p53 (Homo sapiens) (UniProt P04637); assay: ATG_p53_CIS: Attagene CIS-FACTORIAL HepG2 Assay for human p53 Transcription Factor (AID 2282994); settings: HepG2 p53 cis-element reporter, Attagene mRNA; actives raise or lower the signal
Sequence (P04637 whole entry, looked up): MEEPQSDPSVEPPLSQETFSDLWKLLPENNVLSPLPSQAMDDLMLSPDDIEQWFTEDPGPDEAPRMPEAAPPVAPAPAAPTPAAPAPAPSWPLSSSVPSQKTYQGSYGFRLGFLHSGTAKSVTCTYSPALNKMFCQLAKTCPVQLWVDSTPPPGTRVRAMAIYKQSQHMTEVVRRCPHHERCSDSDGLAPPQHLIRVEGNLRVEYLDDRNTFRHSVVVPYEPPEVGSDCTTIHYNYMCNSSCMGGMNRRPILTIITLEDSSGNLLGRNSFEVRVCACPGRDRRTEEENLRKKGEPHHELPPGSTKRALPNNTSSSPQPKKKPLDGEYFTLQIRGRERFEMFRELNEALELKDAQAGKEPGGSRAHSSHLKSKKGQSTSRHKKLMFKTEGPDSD
Active and inactive are the calls of the source. Rule for the calls: active = hit-call score of the fitted dose curve at least 0.9, where 1 is the maximum; inactive = score below 0.9. Peptide text beside a SMILES is read from it.
One label from this list, please: true = active, false = inactive

Example results:
1. CC(=O)OC1CCCCC1C(C)(C)C (stereo not given) :: false
2. CC(CC(C)C)=NO :: false
3. COC(=O)[C@H](Cc1ccccc1)NC(=O)[C@@H](N)CC(=O)O (H-Asp-Phe-OMe) :: false
4. CCCCNS(=O)(=O)c1ccccc1 :: false
5. C=C(C)C1CC=C(C)CC1 (stereo not given) :: false

Prompt: Check the results log: what was the call for "CCCCCCOC(=O)CCCCC(=O)OCCCCCC" ?
Response: false

Prompt: # outcome recorded in this test, key = "CCN1CN(CC)CN(CC)C1"
Response: false

Prompt: Any idea what this test logged for "O=C(OCCc1ccccc1)c1ccccc1" ?
Response: false

Prompt: Fill in: this test's call for "CCc1cccc(C)c1N" is ___
Response: false

Prompt: Write down the call the test reported for this compound. Item: "C=C(C)OC(C)=O"
Response: false

----------
assay: ATG_Oct_MLP_CIS: Attagene CIS-FACTORIAL HepG2 Assay for human Octamer-Binding Transcription Factor (Oct) (AID 2282993); conditions: HepG2 Attagene cis-factorial Oct reporter, mRNA; actives raise or lower the signal
Active and inactive are the calls of the source. How the source made its calls: active means hit-call score of the fitted dose curve at least 0.9, where 1 is the maximum; inactive means score below 0.9.
Please answer using one outcome listed in active, inactive

1. CCCC(CC)c1ccccc1 (stereo not drawn) :: inactive

Prompt: Recorded test outcome, item "COc1ccc(-c2coc3cc(O)cc(O)c3c2=O)cc1"
Response: active

Prompt: # lookup: test call for CC1=CCC2CC1C2(C)C (stereo not drawn)
Response: inactive

Prompt: Please indicate how the test categorized CC1=C(O)C(=O)C(C)O1 (stereo not drawn) .
Response: inactive

Prompt: Kindly provide the recorded test outcome for the following compound: "CC(=O)OCC=C(C)C"
Response: inactive

Prompt: Hi, sorry to bother you, what did the test record for "Nc1ccc(O)c([N+](=O)[O-])c1" ?
Response: inactive

Prompt: I would be grateful if you could indicate the recorded call for "CCCCCCCCCCCCCCCCCCOS(=O)(=O)O" .
Response: inactive

Prompt: Assay outcome for "C1CNCCN1" : what was it?
Response: inactive
